Parameter MFI: see the listing below.
Molecular target: human DLL3 protein expressed on CHO-K1 recombinant cells (human DLL3 extracellular segment fused to EpCAM transmembrane and intracellular regions) (human) (UniProt Q9NYJ7)
Sequence (Q9NYJ7 other isoform, or with tags, fused parts or gaps limits assumed): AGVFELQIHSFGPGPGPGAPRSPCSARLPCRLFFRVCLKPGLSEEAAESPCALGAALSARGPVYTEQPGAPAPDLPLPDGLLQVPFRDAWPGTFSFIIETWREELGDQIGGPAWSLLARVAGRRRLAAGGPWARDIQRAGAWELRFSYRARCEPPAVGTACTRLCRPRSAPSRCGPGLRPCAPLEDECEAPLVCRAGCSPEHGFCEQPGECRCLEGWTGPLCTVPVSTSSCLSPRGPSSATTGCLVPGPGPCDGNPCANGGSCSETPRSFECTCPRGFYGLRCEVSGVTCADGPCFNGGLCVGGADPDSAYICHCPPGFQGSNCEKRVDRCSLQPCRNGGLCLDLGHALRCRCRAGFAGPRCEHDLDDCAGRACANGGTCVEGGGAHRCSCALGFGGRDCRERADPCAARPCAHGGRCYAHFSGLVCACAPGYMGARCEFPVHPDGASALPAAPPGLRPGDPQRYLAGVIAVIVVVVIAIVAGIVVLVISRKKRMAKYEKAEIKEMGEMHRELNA
Assay: FACS, CHO-K1 hDLL3 cells, 0.032 nM antibody
The reply should be a number in MFI, with the unit left off.

Incoming: Name the reported MFI value associated with the binder Hab015VL4VH1b-hFc (scFv, part only; not given: VL-VH linker and human IgG1 Fc, V domains shown, not shown: another chain or arm of the molecule; a dimerising Fc or GST; small tags and cut ends) VL: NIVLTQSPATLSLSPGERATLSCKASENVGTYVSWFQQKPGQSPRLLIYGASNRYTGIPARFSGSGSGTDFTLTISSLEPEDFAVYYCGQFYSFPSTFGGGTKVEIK VH: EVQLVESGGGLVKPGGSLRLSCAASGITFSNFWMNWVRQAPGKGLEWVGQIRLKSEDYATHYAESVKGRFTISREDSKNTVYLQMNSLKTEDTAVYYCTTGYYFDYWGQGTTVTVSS
Outgoing: 302

Incoming: Same lookup for Hab008L3H2a-hFc (scFv, part only; not given: VL-VH linker and human IgG1 Fc, V domains shown, not shown: another chain or arm of the molecule; a dimerising Fc or GST; small tags and cut ends) VL: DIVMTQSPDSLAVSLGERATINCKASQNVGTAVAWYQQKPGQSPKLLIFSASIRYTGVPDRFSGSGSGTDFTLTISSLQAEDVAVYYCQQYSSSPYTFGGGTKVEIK VH: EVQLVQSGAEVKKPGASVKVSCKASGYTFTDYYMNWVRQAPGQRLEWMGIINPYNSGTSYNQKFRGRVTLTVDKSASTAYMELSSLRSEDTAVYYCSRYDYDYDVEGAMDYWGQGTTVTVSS , please.
Outgoing: 240
